experiment notes: Clearance in mouse at 1 mg/kg, iv
Assay type: ADME, organism-based
reported conditions: in vivo
measured endpoint: clearance (mL/min/kg)

I = CNC(=O)Nc1cc(Oc2cncc(C)c2)c([C@H]2C[C@@H](O)C2)cn1
II = CNC(=O)Nc1cc(Oc2cncc(OC)c2)c([C@H]2CCCOC2)cn1
Q. Lower clearance: I or II ? Identify your selection by its label.
A. I

* * *

system under test: Hexokinase-4 (Homo sapiens)
Sequence (P35557 whole entry): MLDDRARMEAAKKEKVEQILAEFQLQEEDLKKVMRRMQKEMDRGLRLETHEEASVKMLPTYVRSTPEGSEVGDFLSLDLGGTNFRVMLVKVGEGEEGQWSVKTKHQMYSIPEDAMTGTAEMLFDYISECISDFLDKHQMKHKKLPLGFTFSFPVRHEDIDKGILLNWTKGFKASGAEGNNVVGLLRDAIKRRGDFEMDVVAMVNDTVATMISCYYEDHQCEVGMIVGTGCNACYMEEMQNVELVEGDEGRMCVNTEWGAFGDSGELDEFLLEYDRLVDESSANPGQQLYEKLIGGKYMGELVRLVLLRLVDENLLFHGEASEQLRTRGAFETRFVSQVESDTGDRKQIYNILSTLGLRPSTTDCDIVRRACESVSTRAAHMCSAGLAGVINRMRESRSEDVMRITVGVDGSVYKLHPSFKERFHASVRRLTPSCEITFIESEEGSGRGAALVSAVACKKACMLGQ
experiment notes: Activation of human recombinant glucokinase using 5 mM glucose as substrate in presence of NAD+ and 4% HSA by glucose 6-phosphate dehydrogenase coupled assay
pEC50: −log10 of the molar value.
measured endpoint: pEC50

P = CNC(=O)Nc1cc(Oc2cncc(OC)c2)c([C@H]2CCCOC2)cn1
Q = CNC(=O)Nc1cc(Oc2cncc(C)c2)c([C@H]2C[C@@H](C(C)(C)O)C2)cn1
Q. Lower pEC50: P or Q ? Identify your selection by its label.
A. P
